# credit: patent US20140113872A1

Reported Aortic Ring contraction Emax (%) values for a set of binders
# measuredTarget: T1, UT receptor present in rat aortic ring (rat, UniProt P49684 1-386)
# T1 sequence (looked up): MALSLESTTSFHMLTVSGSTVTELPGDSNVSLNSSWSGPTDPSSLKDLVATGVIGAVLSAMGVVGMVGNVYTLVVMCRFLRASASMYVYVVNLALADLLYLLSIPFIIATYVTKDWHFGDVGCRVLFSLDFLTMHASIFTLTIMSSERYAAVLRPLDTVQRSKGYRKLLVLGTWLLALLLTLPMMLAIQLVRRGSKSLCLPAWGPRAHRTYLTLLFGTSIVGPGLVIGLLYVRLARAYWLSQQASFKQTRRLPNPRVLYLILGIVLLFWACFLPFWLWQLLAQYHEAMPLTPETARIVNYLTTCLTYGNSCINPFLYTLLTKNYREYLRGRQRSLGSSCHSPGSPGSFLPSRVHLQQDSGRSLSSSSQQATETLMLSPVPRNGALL
# procedureText: cell-based or functional assay
Bridge positions count the residues as written; N and C are the ends.

Sample H-ETPDCFWKYCV-OH (disulfide 5-10) [human urotensin II (hUII)] ; Aortic Ring contraction Emax (%) observed: 117 % of KCl (40 mM) contraction
